Where these numbers come from: patent US20070026478A1

Test system: KB cells
MEASUREMENT_NOTES: Cell proliferation assay in tissue culture (SRB)
Format: cell-based
TEST_CONDITIONS: 72 hours
Method: Cell proliferation studies were performed according to procedures described by Loganzo et al. (Cancer Res. 2003, 63:1838-1845). Briefly, KB cells were plated in 96-well plates in 100 μL media at densities pre-determined to produce 60-90% confluence at the time of analysis. Compounds, which were serially diluted into media as 2× stocks, were added to cells in duplicate. […]
pIC50: −log10 of the molar value.
MEASURED_PARAMETER: pIC50

CN[C@H](C(=O)N[C@H](C(=O)N(C)[C@H](/C=C(\C)C(=O)O)C(C)C)C(C)(C)c1ccc(C(=O)c2ccccc2)cc1)C(C)(C)c1ccccc1 ... 7.65
